# Test system: RAW-Dual
# Test name: IRF Lucia reporter activity, fold change vs agonist alone; cytotoxicity flag (confluency mask): cytotoxic (confluency <70% of control); higher = enhanced IRF activity
# Experimental context: agonist: LPS (TLR4) 0.1 ug/mL
Whole data set: some 2,900 compounds, median “IRF Lucia reporter activity, fold change vs agonist alone” near 0.9, cut for the highest 2% near 2.8. The sample holds the highest values, similar compounds and a random draw of the others, so the mix is not that of the screen.

| Molecule | Tested on | IRF Lucia reporter activity |
| --- | --- | --- |
| COc1cc2nc(N3CCCC3)nc(NCCCCCN3CCCC3)c2cc1OC (library stock concentration (final ~1000-fold dilution): 10 mM) | RAW-Dual | 2.54 |
| COc1ncc(-c2cc(-c3ncc(CN4CC(C)OC(C)C4)o3)c3cn[nH]c3c2)cc1NS(C)(=O)=O (stereo not given) (library stock concentration (final ~1000-fold dilution): 10 mM) | RAW-Dual | 4.5 |
| Cc1cccc(Nc2nc(NC3CCCCC3N)ncc2C(N)=O)c1.Cl.Cl (stereo not given) (library stock concentration (final ~1000-fold dilution): 10 mM) | RAW-Dual | 0.0241 |
| O=[N+]([O-])c1ccc(Sc2cccc[n+]2[O-])c2nonc12 (library stock concentration (final ~1000-fold dilution): 10 mM) | RAW-Dual | 0.0128 |
| Nc1ncc(-c2ccnc(Nc3ccncc3)n2)c(CC2CC2)n1 (library stock concentration (final ~1000-fold dilution): 10 mM) | RAW-Dual | 3.92 |
